// provenance: patent US5369096A

# Lookup of reported Amount of Colo 201 cells adhered (fluorescence intensity) keyed by entry
# Tested on: Colo 201 cancer cells adhering to vascular endothelial cells of the normal human umbilical cord
# measurement_description: inhibition of adhesion of Colo 201 cancer cells to rhIL1β-stimulated vascular endothelial cells, liposome dispersion
# Format: cell-based
# measurement_context: 11.8 μM equivalent, rhIL1β 200 U/ml, 485 nm
// return a plain number; no unit text

- compound: "CCCCCCCCCCCCCCC(CCCCCCCCCCCCCC)C(=O)Nc1ccc(COCCOCCOCCOCCO[C@@H]2O[C@H](CO)[C@@H](O[C@@H]3O[C@H](CO)[C@H](O)[C@H](O[C@]4(C(=O)O)C[C@H](O)[C@@H](NC(C)=O)[C@H]([C@H](O)[C@H](O)CO)O4)[C@H]3O)[C@H](O[C@@H]3O[C@@H](C)[C@@H](O)[C@@H](O)[C@@H]3O)[C@H]2O)cc1"
  experimental_result: 240330

Next:
Kindly note the recorded Amount of Colo 201 cells adhered (fluorescence intensity) for CCCCCCCCCCCCC/C=C/[C@@H](O)[C@H](CO[C@@H]1O[C@H](CO)[C@@H](O[C@@H]2O[C@H](CO)[C@H](O)[C@H](O[C@@H]3O[C@H](CO)[C@@H](O[C@@H]4O[C@H](CO)[C@H](O)[C@H](O[C@]5(C(=O)O)C[C@H](O)[C@@H](NC(C)=O)[C@H]([C@H](O)[C@H](O)CO)O5)[C@H]4O)[C@H](O[C@@H]4O[C@@H](C)[C@@H](O)[C@@H](O)[C@@H]4O)[C@H]3NC(C)=O)[C@H]2O)[C@H](O)[C@H]1O)NC(=O)CCCCCCCCCCCCCCCCC [2→3 sialyl Le^x, reference compound] , which is 448512

====

# Test system: human normal lymphocytes adhering to vascular endothelial cells of the normal human umbilical cord
# measurement_description: inhibition of adhesion of human normal lymphocytes to rhIL1β-stimulated vascular endothelial cells, liposome dispersion
# Format: cell-based
# measurement_context: 20 μg/ml equivalent, rhIL1β 200 U/ml, 485 nm/535 nm
endpoint_name: Amount of human normal lymphocytes adhered (fluorescence intensity)
// return a plain number; no unit text

Kindly note the recorded Amount of human normal lymphocytes adhered (fluorescence intensity) for "CCCCCCCCCCCCCCC(CCCCCCCCCCCCCC)C(=O)Nc1ccc(COCCOCCO[C@@H]2O[C@H](CO)[C@@H](O[C@@H]3O[C@H](CO)[C@H](O)[C@H](O[C@]4(C(=O)O)C[C@H](O)[C@@H](NC(C)=O)[C@H]([C@H](O)[C@H](O)CO)O4)[C@H]3O)[C@H](O[C@@H]3O[C@@H](C)[C@@H](O)[C@@H](O)[C@@H]3O)[C@H]2O)cc1" , which is 6882

====

# Lookup of reported Amount adhered (fluorescence intensity) keyed by entry
# System: human normal lymphocytes adhering to vascular endothelial cells of the normal human umbilical cord
# measurement_description: inhibition of adhesion of human normal lymphocytes to rhIL1β-stimulated vascular endothelial cells, oily emulsion
# Format: cell-based
# measurement_context: 20 μg/ml equivalent, rhIL1β 200 U/ml, 485 nm/535 nm
// return a plain number; no unit text

Below, 2 compounds whose answers are already recorded.
- compound: "CCCCCCCCCCCCCCC(CCCCCCCCCCCCCC)C(=O)Nc1ccc(CO[C@@H]2O[C@H](CO)[C@@H](O[C@@H]3O[C@H](CO)[C@H](O)[C@H](O[C@]4(C(=O)O)C[C@H](O)[C@@H](NC(C)=O)[C@H]([C@H](O)[C@H](O)CO)O4)[C@H]3O)[C@H](O[C@@H]3O[C@@H](C)[C@@H](O)[C@@H](O)[C@@H]3O)[C@H]2O)cc1 [Compound 5E, reference compound]"
  endpoint_name: "Amount adhered (fluorescence intensity)"
  experimental_result: 14781
- compound: "CCCCCCCCCCCCCCC(CCCCCCCCCCCCCC)C(=O)Nc1ccc(COCCOCCOCCOCCO[C@@H]2O[C@H](CO)[C@@H](O[C@@H]3O[C@H](CO)[C@H](O)[C@H](O[C@]4(C(=O)O)C[C@H](O)[C@@H](NC(C)=O)[C@H]([C@H](O)[C@H](O)CO)O4)[C@H]3O)[C@H](O[C@@H]3O[C@@H](C)[C@@H](O)[C@@H](O)[C@@H]3O)[C@H]2O)cc1"
  endpoint_name: "Amount adhered (fluorescence intensity)"
  experimental_result: 13563

Next:
Kindly note the recorded Amount adhered (fluorescence intensity) for "CCCCCCCCCCCCCCC(CCCCCCCCCCCCCC)C(=O)Nc1ccc(COCCOCCOCCO[C@@H]2O[C@H](CO)[C@@H](O[C@@H]3O[C@H](CO)[C@H](O)[C@H](O[C@]4(C(=O)O)C[C@H](O)[C@@H](NC(C)=O)[C@H]([C@H](O)[C@H](O)CO)O4)[C@H]3O)[C@H](O[C@@H]3O[C@@H](C)[C@@H](O)[C@@H](O)[C@@H]3O)[C@H]2O)cc1" , which is 10045
